- Tested on: PC-3 prostate
- Assay details: NCI tumour cell line growth inhibition, 48 h
Quantity: TGI

Sample answers from the record:
[[record]]
compound = "C=C1c2c(C)nn(-c3ccccc3)c2N(C)C23C[C@@H]1C1(C)c4c(C)nn(-c5ccccc5)c4N(C)C(C)(C[C@H]12)C3 (stereo partly drawn)"
quantity = "TGI"
measured_value = "> 100 µM"

[[record]]
compound = "C=CC[n+]1c(/C=C2\\Sc3ccccc3N2C)sc(-c2ccccc2)c1-c1ccccc1"
quantity = "TGI"
measured_value = "1.34 µM"

[[record]]
compound = "O=C(O)c1cc(/C=C/c2ccc(O)c(O)c2)ccc1O"
quantity = "TGI"
measured_value = "> 100 µM"

[[record]]
compound = "O=C(NCCc1ccc(F)cc1)c1cc(/C=C/c2cc(O)ccc2O)ccc1O"
quantity = "TGI"
measured_value = "10.9 µM"

[[record]]
compound = "CC(=O)NC1=NC(=O)/C(=C/c2ccc(Cl)cc2Cl)N1C"
quantity = "TGI"
measured_value = "> 100 µM"


Prompt: I would be grateful if you could share the reported TGI for COc1cc2c(cc1OC)[C@@H]1[C@H](C2=O)c2ccc([N+](=O)[O-])cc2C(=O)N1CCCBr .
Response: > 70.4 µM

Prompt: I would be grateful if you could share the reported TGI for CCCCC(=O)Nc1ccc2cc(C(=O)OC)c(=O)[nH]c2n1 .
Response: > 100 µM

Prompt: I would be grateful if you could share the reported TGI for COc1ccc(-n2cc(-c3ccc(Cl)cc3)[nH]c2=S)cc1Cl .
Response: > 100 µM

Prompt: I would be grateful if you could share the reported TGI for CCOC(=O)n1c2ccccc2c2c(O)c(OC)c3c(c21)C(=O)NC3=O .
Response: > 100 µM

Prompt: I would be grateful if you could share the reported TGI for Oc1cccc(-c2cc(=S)ss2)c1 .
Response: 28.3 µM

Prompt: I would be grateful if you could share the reported TGI for C=CCn1c(-c2ccc(N=NNc3ccc(-c4n[nH]c(=S)n4CC=C)cc3)cc2)n[nH]c1=S .
Response: > 100 µM

Prompt: I would be grateful if you could share the reported TGI for CCCCc1ccc(Nc2nc(N)c3[nH]cnc3n2)cc1 .
Response: 39.7 µM

Prompt: I would be grateful if you could share the reported TGI for CO/C=C(/C(=O)OC)c1ccccc1[C@H]1C[C@@H]1c1ccc(OC)cc1 .
Response: > 100 µM

FYI, the data here is from PubChem BioAssay (NCI).
